Test system: Staphylococcus aureus
Assay: Antibacterial activity against hospital-acquired methicillin-sensitive Staphylococcus aureus 445/11 after 18 hrs by twofold serial agar dilution technique
Type: functional
Settings: 445/11, 18 h
# MIC listing for each entry below
Number only, in µg/mL; omit the unit.

Example results:
compound | MIC, µg/mL
CC[C@@]1([C@@H]2O[C@@H]([C@H]3O[C@@](O)(CO)[C@H](C)C[C@@H]3C)C[C@@H]2C)CC[C@H]([C@]2(C)CC[C@]3(C[C@H](O)[C@@H](C)[C@@H]([C@@H](C)[C@@H](OC)[C@H](C)C(=O)O)O3)O2)O1 [MONENSIN] | 2
CC[C@@H](C(=O)[C@@H](C)[C@@H](O)[C@H](C)[C@@H]1O[C@@H]([C@@H](CC)C(=O)O)CC[C@@H]1C)[C@H]1O[C@]2(C=C[C@@H](O)[C@]3(CC[C@@](C)([C@H]4CC[C@](O)(CC)[C@H](C)O4)O3)O2)[C@H](C)C[C@@H]1C [SALINOMYCIN] | 1
CC[C@@H](C(=O)[C@@H](C)[C@@H](O)[C@H](C)[C@@H]1O[C@@H]([C@@H](CC)C(=O)Nc2ccccc2)CC[C@@H]1C)[C@H]1O[C@]2(C=C[C@@H](O)[C@]3(CC[C@@](C)([C@H]4CC[C@](O)(CC)[C@H](C)O4)O3)O2)[C@H](C)C[C@@H]1C | 2

Attention now shifts to the item below.
Bench note: what MIC did `CC[C@@H](C(=O)[C@@H](C)[C@@H](O)[C@H](C)[C@@H]1O[C@@H]([C@@H](CC)C(=O)NCCCN2CCCCC2)CC[C@@H]1C)[C@H]1O[C@]2(C=C[C@@H](O)[C@]3(CC[C@@](C)([C@H]4CC[C@](O)(CC)[C@H](C)O4)O3)O2)[C@H](C)C[C@@H]1C` show?
32

###

Quick reference: MIC of the listed items.
System: Staphylococcus aureus
Test: Antibacterial activity against hospital-acquired methicillin-sensitive Staphylococcus aureus 444/11 after 18 hrs by twofold serial agar dilution technique
Format: functional
Details: 444/11, 18 h
The response must be a number in mg/L with no trailing unit.

Worked cases, MIC given:
smiles_entry | target | val
CC[C@@H](C(=O)[C@@H](C)[C@@H](O)[C@H](C)[C@@H]1O[C@@H]([C@@H](CC)C(=O)O)CC[C@@H]1C)[C@H]1O[C@]2(C=C[C@@H](O)[C@]3(CC[C@@](C)([C@H]4CC[C@](O)(CC)[C@H](C)O4)O3)O2)[C@H](C)C[C@@H]1C | Staphylococcus aureus | 2
CC[C@@]1([C@@H]2O[C@@H]([C@H]3O[C@@](O)(CO)[C@H](C)C[C@@H]3C)C[C@@H]2C)CC[C@H]([C@]2(C)CC[C@]3(C[C@H](O)[C@@H](C)[C@@H]([C@@H](C)[C@@H](OC)[C@H](C)C(=O)O)O3)O2)O1 | Staphylococcus aureus | 4
CC[C@@H](C(=O)[C@@H](C)[C@@H](O)[C@H](C)[C@@H]1O[C@@H]([C@@H](CC)C(=O)Nc2ccccc2)CC[C@@H]1C)[C@H]1O[C@]2(C=C[C@@H](O)[C@]3(CC[C@@](C)([C@H]4CC[C@](O)(CC)[C@H](C)O4)O3)O2)[C@H](C)C[C@@H]1C | Staphylococcus aureus | 2

Here's the next entry for you.
What value of MIC has been reported for the following compound? `CC[C@@H](C(=O)[C@@H](C)[C@@H](O)[C@H](C)[C@@H]1O[C@@H]([C@@H](CC)C(=O)NCCCN2CCCCC2)CC[C@@H]1C)[C@H]1O[C@]2(C=C[C@@H](O)[C@]3(CC[C@@](C)([C@H]4CC[C@](O)(CC)[C@H](C)O4)O3)O2)[C@H](C)C[C@@H]1C`
32
